system: SEM cells; test: cell viability relative to DMSO control; higher = less cytotoxic; conditions: HPLM + 10% dialyzed FBS; 48 h; 0.00702 µM
PROPERTY LABEL: cell viability (%)
Kindly answer with a numeric value in %, unit omitted.

Solved entries (count: 3):
O=C1CCc2cc(OCCCCc3nnnn3C3CCCCC3)ccc2N1; 101
Clc1ccc(C(Cn2ccnc2)OCc2ccsc2Cl)c(Cl)c1 (stereo not given); 107
CN(C)Cc1cccc(N/C(=C2\C(=O)Nc3cc(C(=O)N(C)C)ccc32)c2ccccc2)c1; 100

Asked: Any idea what its cell viability is? The molecule is `O=C(Nc1cccc2c(=O)cc(-c3nnn[nH]3)oc12)c1ccc(OCCCCc2ccccc2)cc1`
Given back: 85.2

Asked: Entry to check: Oc1ccc(C2CNCCc3c2cc(O)c(O)c3Cl)cc1 (stereo not given)
Given back: 90

Asked: Further, for `Oc1ccc(-c2nc(-c3ccncc3)c(-c3ccc(F)cc3)[nH]2)cc1` ?
Given back: 102

Asked: Next molecule: COc1ccccc1N1CCN(CC(O)COc2cccc3ccccc23)CC1 (stereo not given)
Given back: 124

Asked: Another molecule: `CCCCC(F)(F)[C@@]1(O)CC[C@H]2[C@@H](CC(=O)[C@@H]2CCCCCCC(=O)O)O1`
Given back: 123

Asked: Consider next the molecule `COC(=O)[C@@H]1CC2=CC(=O)CC[C@]2(C)[C@@]23O[C@@H]2C[C@@]2(C)[C@@H](CC[C@@]24CCC(=O)O4)[C@H]13` in the same way.
Given back: 94.7

Asked: Lookup `CC/C(=C(\c1ccccc1)c1ccc(OCCN(C)C)cc1)c1ccccc1`
Given back: 107
